# credit: patent US20060069132A1

test system: barnyardgrass; assay: Test B flooded paddy test; format: in vivo, Echinochloa crus-galli; settings: 1000 g ai/ha, visual rating, scale 0 to 100 (0 no effect, 100 complete control), 13 to 15 days
TEST READOUT: Barnyardgrass plant response rating
Field format: numeric only.

Examples with their reported Barnyardgrass plant response rating follow.
Cc1nc(C(C)(C)C)sc1C(=O)Nc1cccc(C(=O)NCC(F)(F)F)c1 [Compound 201] ... 0
C=CCN(C)C(=O)c1cccc(NC(=O)c2cc(C(C)(C)C)nn2CC)n1 [Compound 163] ... 70
CCn1nc(C(C)(C)C)cc1C(=O)Nc1cc(C(=O)OC)c(OC)cc1F [Compound 75] ... 80

Reported Barnyardgrass plant response rating (barnyardgrass) for entry CCn1nc(C(C)(C)C)cc1C(=O)Nc1cc(C#N)ccc1F [Compound 140] is 70

Reported Barnyardgrass plant response rating (barnyardgrass) for entry CCc1nc(C(C)(C)C)sc1C(=O)Nc1cccc(C(=O)NCC2CC2)n1 [Compound 215] is 30

----------
system: barnyardgrass; test: Test B pre-/postemergence herbicide test; format: in vivo, Echinochloa crus-galli; settings: Postemergence, 500 g ai/ha; visual rating after 13 to 15 days, scale 0 (no effect) to 100 (complete control)
We begin with a simple list: items and their reported Plant response rating, Barnyardgrass.
Field format: numeric only.

Examples with their reported Plant response rating, Barnyardgrass follow.
CCn1nc(C(C)(C)C)cc1C(=O)Nc1cc(C(=O)OC)c(OC)cc1F ... 20
C=CCn1nc(C(C)(C)C)cc1C(=O)Nc1cccc(C(C)=NO)c1 ... 30
CCn1nc(C(C)(C)C)cc1C(=O)Nc1cccc(C(=O)OC)c1C ... 0
C=Cn1nc(C(C)(C)C)cc1C(=O)Nc1cccc(C(=O)OCC)c1 ... 30

Reported Plant response rating, Barnyardgrass (barnyardgrass) for entry CCn1nc(C(C)(C)C)cc1C(=O)Nc1cccc2c1CNC2=O is 0

----------
test system: large crabgrass; experiment: Test B pre-/postemergence herbicide test; assay type: in vivo, Digitaria sanguinalis; details: Postemergence, 500 g ai/ha; visual rating after 13 to 15 days, scale 0 (no effect) to 100 (complete control)
TEST READOUT: Plant response rating, Crabgrass, Large
Field format: numeric only.

Reported Plant response rating, Crabgrass, Large for CCn1nc(C(C)(C)C)cc1C(=O)Nc1cccc2c1CNC2=O [Compound 52] was 10

Reported Plant response rating, Crabgrass, Large for CCn1nc(C(C)(C)C)cc1C(=O)Nc1cccc(C(=O)OC)c1 [Compound 81] was 20

Reported Plant response rating, Crabgrass, Large for CCn1nc(C(C)(C)C)cc1C(=O)Nc1cccc(C(=O)NOC)c1 [Compound 67] was 10

Reported Plant response rating, Crabgrass, Large for CCn1nc(C(C)(C)C)cc1C(=O)Nc1ccc(F)c(C(=O)NCCF)c1 [Compound 60] was 20

Reported Plant response rating, Crabgrass, Large for CCn1nc(C(C)(C)C)cc1C(=O)Nc1cccc(C(=O)OCC2CC2)c1C [Compound 93] was 10

----------
system: small flower umbrella sedge; experiment: Test B flooded paddy test; type: in vivo, Cyperus difformis; conditions: 1000 g ai/ha, scale 0 to 100 (0 no effect, 100 complete control)
TEST READOUT: Sedge, Umbrella plant response rating
Field format: numeric only.

Reported Sedge, Umbrella plant response rating for CCn1nc(C(C)(C)C)cc1C(=O)Nc1cncc(C(=O)NCC(F)(F)F)n1 was 0

Reported Sedge, Umbrella plant response rating for CCn1nc(C(C)(C)C)cc1C(=O)Nc1nc(C(=O)N(C)C)ccc1F was 0

Reported Sedge, Umbrella plant response rating for CCNC(=S)c1ccc(F)c(NC(=O)c2cc(C(C)(C)C)nn2CC)c1 was 80

Reported Sedge, Umbrella plant response rating for C=CCOc1cccc(NC(=O)c2cc(C(C)(C)C)nn2CC)c1 was 90

Reported Sedge, Umbrella plant response rating for CCn1nc(C(C)(C)C)cc1C(=O)Nc1cccc(OC(C)C)c1 was 80

Reported Sedge, Umbrella plant response rating for Cc1nn(C(C)(C)C)nc1C(=O)Nc1cccc(C(=O)N(C)C)c1 was 80

----------
tested on: giant foxtail; assay: Test C pre-/postemergence herbicide test; type: in vivo, Setaria faberi; settings: postemergence; 62 g ai/ha; scale 0 to 100
We begin with a simple list: items and their reported Plant response rating, Foxtail, Giant.
Field format: numeric only.

Examples with their reported Plant response rating, Foxtail, Giant follow.
CCn1nc(C(C)(C)C)cc1C(=O)Nc1cccc(C#N)c1 [Compound 139] ... 0
C#CCOC(=O)c1cccc(NC(=O)c2cc(C(C)(C)C)nn2CC)c1 [Compound 84] ... 0

Reported Plant response rating, Foxtail, Giant for CCn1nc(C(C)(C)C)cc1C(=O)Nc1cccc(OC(F)(F)F)c1 [Compound 272] was 15

Reported Plant response rating, Foxtail, Giant for CCn1nc(C(C)(C)C)cc1C(=O)Nc1cccc(C(=O)OC)c1 [Compound 81] was 10

Reported Plant response rating, Foxtail, Giant for CCn1nc(C(C)(C)C)cc1C(=O)Nc1cccc(OC(F)(F)C(F)F)c1 [Compound 333] was 5

----------
tested on: wild oat; experiment: Test B postemergence herbicide test; type: in vivo, Avena fatua; conditions: postemergence, 125 g ai/ha; visual rating, scale 0 (no effect) to 100 (complete control)
TEST READOUT: Oat, Wild plant response rating
Field format: numeric only.

Examples with their reported Oat, Wild plant response rating follow.
CC(=O)c1cc(NC(=O)c2cc(C(C)(C)C)nn2C)ccc1F ... 0
CCn1nc(C(C)(C)C)cc1C(=O)Nc1nc(C(=O)N(C)C)ccc1F ... 10
CCc1nc(C(C)(C)C)sc1C(=O)Nc1cc(C(=O)N(C)CC)ccc1F ... 20
C=CCOC(=O)c1cccc(NC(=O)c2cc(C(C)(C)C)nn2CC)c1C ... 10
COc1ccc(C(C)=NO)cc1NC(=O)c1cc(C(C)(C)C)nn1C ... 0

Reported Oat, Wild plant response rating for CCn1nc(C(C)(C)C)cc1C(=O)Nc1cccc(C(=O)NC2CC2)n1 was 10

Reported Oat, Wild plant response rating for CCn1nc(C(C)(C)C)cc1C(=O)Nc1nc(OC)cc(SCF)n1 was 0

Reported Oat, Wild plant response rating for CCNC(=O)c1cc(C)cc(NC(=O)c2cc(C(C)(C)C)nn2CC)n1 was 20

Reported Oat, Wild plant response rating for CC(=NO)c1cccc(NC(=O)c2cc(C(C)(C)C)nn2CC(F)(F)F)c1 was 40

----------
System: large crabgrass
Experiment: Test B pre-/postemergence herbicide test
Type: in vivo, Digitaria sanguinalis
Details: 500 g ai/ha; visual rating 0-100, 0 no effect, 100 complete control; preemergence
Method: […] At the same time, plants selected from these crop and weed species and also blackgrass (Alopecurus myosuroides Huds.), wheat (Triticum aestivum L.) and wild oat (Avena fatua L.) were treated with postemergence applications of test chemicals formulated in the same manner. […] Treated plants and controls were maintained in a greenhouse for 13 to 15 days, after which time all species were compared to controls and visually evaluated. […]
We begin with a simple list: items and their reported Plant response rating, Crabgrass, Large.
Field format: numeric only.

Examples with their reported Plant response rating, Crabgrass, Large follow.
CCNC(=O)c1cc(C)cc(NC(=O)c2cc(C(C)(C)C)nn2CC)n1 [Compound 150] ... 10
Cc1nc(C(C)(C)C)sc1C(=O)Nc1cccc(C(=O)NCC(F)(F)F)c1 [Compound 201] ... 60
C=CCn1nc(C(C)(C)C)cc1C(=O)Nc1cccc(C(C)=O)c1 [Compound 129] ... 90
CCNC(=O)c1cc(C)nc(NC(=O)c2cc(C(C)(C)C)nn2CC)c1 [Compound 149] ... 100
C=CCNC(=O)c1cccc(NC(=O)c2sc(C(C)(C)C)nc2C)c1 [Compound 202] ... 100
C=CCN(C)C(=O)c1cccc(NC(=O)c2cc(C(C)(C)C)nn2CC)n1 [Compound 163] ... 90

Reported Plant response rating, Crabgrass, Large (large crabgrass) for entry Cc1nc(C(C)(C)C)sc1C(=O)Nc1cccc(C(=O)NCCF)c1 [Compound 200] is 90

Reported Plant response rating, Crabgrass, Large (large crabgrass) for entry CCn1nc(C(C)(C)C)cc1C(=O)Nc1cccc(C(C)=NO)c1 [Compound 108] is 100

Reported Plant response rating, Crabgrass, Large (large crabgrass) for entry CCCc1nn(C(C)(C)C)cc1C(=O)Nc1cccc(C(=O)N(CC)CC)c1 [Compound 185] is 50

Reported Plant response rating, Crabgrass, Large (large crabgrass) for entry C#CCNC(=O)c1cccc(NC(=O)c2sc(C(C)(C)C)nc2C)c1 [Compound 203] is 80

----------
test system: large crabgrass; assay: Test A pre-/postemergence herbicide test; type: in vivo, Digitaria sanguinalis; conditions: Postemergence, 2000 g ai/ha; 0 to 100 scale, 0 no effect, 100 complete control
TEST READOUT: Plant response rating, Crabgrass, Large
Field format: numeric only.

Examples with their reported Plant response rating, Crabgrass, Large follow.
CCNC(=O)c1cncc(NC(=O)c2cc(C(C)(C)C)nn2CC)n1 [Compound 288] ... 15
CCn1nc(C(C)(C)C)cc1C(=O)Nc1cccc(C(=O)OC)c1C [Compound 87] ... 60
CCc1nn(C2CCCC2)nc1C(=O)Nc1cccc(C(=O)N(C)C)c1 [Compound 355] ... 30

Turning now to a further compound:
Reported Plant response rating, Crabgrass, Large (large crabgrass) for entry CCn1nc(C(C)(C)C)cc1C(=O)Nc1cccc(OC(F)(F)F)c1 [Compound 272] is 90
